assay.comment: Solubility estimate by adding solvent aliquots to weighed solid, dissolution judged visually
particulars: ethanol, organic solvent or mixture, thermodynamic from solid
Counter-ions that a name gives are not always drawn.
reported.metric: solubility (mg/mL)
Field format: number, assumed mg/mL, no unit text.

[Q] Answer with the recorded solubility of COc1cc(CCN)c(OC)cc1Br [2C-B.HCl] only.
[A] 13

###

assay.comment: Estimated solubilities of 2C-B HCl in solvents
particulars: EtOAc, organic solvent or mixture, thermodynamic from solid
reported.metric: solubility

[Q] Please look at this molecule and report its solubility: COc1cc(CCN)c(OC)cc1Br.Cl [2C-B HCl, 4-bromo-2,5-dimethoxyphenethylamine HCl]
[A] < 2000 µg/mL
